Listing of recorded EC50 of cytotoxicity (LDH), sCAR-T cells + switch vs CD19+ RS4;11, assay DTR-5-50 (PBMC) by entry.
# TARGET_UNDER_TEST: T1, CD19 (UniProt P15391 20-556, limits assumed)
# T1 sequence (looked up): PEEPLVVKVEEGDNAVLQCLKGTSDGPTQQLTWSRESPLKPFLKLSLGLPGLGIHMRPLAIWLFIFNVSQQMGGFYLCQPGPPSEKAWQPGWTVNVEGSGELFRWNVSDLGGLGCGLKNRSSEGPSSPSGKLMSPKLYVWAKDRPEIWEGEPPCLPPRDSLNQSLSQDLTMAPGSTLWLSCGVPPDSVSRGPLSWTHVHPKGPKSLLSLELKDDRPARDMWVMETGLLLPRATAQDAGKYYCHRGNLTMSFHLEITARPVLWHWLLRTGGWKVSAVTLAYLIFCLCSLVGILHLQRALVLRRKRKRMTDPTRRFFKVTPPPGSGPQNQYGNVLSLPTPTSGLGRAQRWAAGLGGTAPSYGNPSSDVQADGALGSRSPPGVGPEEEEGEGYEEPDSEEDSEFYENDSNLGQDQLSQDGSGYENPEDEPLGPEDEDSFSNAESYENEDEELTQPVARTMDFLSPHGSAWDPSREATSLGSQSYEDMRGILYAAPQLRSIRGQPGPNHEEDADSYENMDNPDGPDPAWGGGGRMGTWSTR
# ASSAY_DETAILS: cell-based or functional assay
// note: answer is a bare numeric in pM

hFMCL2b-LCNT/hFMCH4b (Fab, V domains shown) VH: QVQLQESGPGLVKPSETLSVTCTVSGVSLPDYGVSWIRQPPGKGLEWLGVIWGSETTYYNPSLKSRLTISKDNSKNQVSLKMSSLTAADTAVYYCAKHYYYGGSYAMDYWGQGTLVTVSS VL: DIQMTQSPSSLSASVGDRVTITCRASQDISKYLNWYQQKPGKAVKLLIYHTSRLHSGVPSRFSGSGSGTDYTLTISSLQPEDFATYFCQQGATLPYTFGQGTKLEIK = 3.93

Please find the next binder below.
For the binder hFMCL2/H4a WT (antibody, V domains shown) VH: QVQLQESGPGLVKPSETLSVTCTVSGVSLPDYGVSWIRQPPGKGLEWLGVIWGSETTYYNPSLKSRLTISKDTSKNQVSLKMSSLTAADTAVYYCAKHYYYGGSYAMDYWGQGTLVTVSS VL: DIQMTQSPSSLSASVGDRVTITCRASQDISKYLNWYQQKPGKAPKLLIYHTSRLHSGVPSRFSGSGSGTDYTLTISSLQPEDFATYYCQQGATLPYTFGQGTKLEIK , give its reported EC50 of cytotoxicity (LDH), sCAR-T cells + switch vs CD19+ RS4;11, assay DTR-5-50 (PBMC).
28.3
